measured attribute: melting point

>>> result("C#CCn1c(C)nc2ccccc21")
"67 to 69 °C"
>>> result("NC(=NO)c1cccnc1Oc1ccccc1")
"152 to 154 °C"
>>> result("OCC(NCc1ccccc1)C1CC1 (centres undefined)")
"56 to 58 °C"
>>> result("Brc1cccc2[nH]ncc12")
"165 to 167 °C"
>>> result("COC(=O)C(=O)CC(=O)c1ccc(Br)cc1")
"104 to 106 °C"
>>> result("CC(C)S(=O)(=O)c1ccc(F)c(C(=O)O)c1")
"139 to 141 °C"
>>> result("N#CC(C(=O)CCl)c1nc2ccccc2c(=O)[nH]1 (centres undefined)")
"216 to 218 °C"
>>> result("c1ccc(-c2ncc[nH]2)nc1")
"133 to 135 °C"
>>> result("O=c1[nH]c2ccc([N+](=O)[O-])cc2o1")
"242 to 244 °C"
>>> result("CN(CC(=O)O)C(=O)c1ccc(Br)s1")
"114 to 116 °C"
>>> result("CCCC(C)(NC(=O)OCc1ccccc1)C(=O)O (centres undefined)")
"103 to 105 °C"
>>> result("CSc1ccc(C#N)cc1N")
"42 to 44 °C"
>>> result("CN(CC(N)=S)C(=O)OC(C)(C)C")
"149 to 151 °C"
>>> result("NC(=O)CNS(=O)(=O)c1cccc(C(=O)O)c1")
"259 to 261 °C"

###

The following compounds are listed with their measured melting point values.
measured attribute: melting point

>>> result("CC(Br)C(=O)c1ccc2c(c1)CCC(=O)N2 (stereo not drawn)")
"193 to 195 °C"
>>> result("Cc1ccc(C)c(SCc2cccc(C(=O)O)c2)c1")
"129 to 131 °C"
>>> result("COc1cc(OC)c(N(C)S(=O)(=O)c2cccc(C(=O)O)c2)cc1Cl")
"208 to 210 °C"
>>> result("O=C1CCc2ccc(F)cc2N1")
"187 to 189 °C"
>>> result("O=C(O)COc1ccc2cc(Br)ccc2c1")
"224 to 226 °C"
>>> result("Cc1ccc(-n2cc(C(=O)O)c(C(C)(C)C)n2)cc1")
"218 to 220 °C"
>>> result("O=S(=O)(O)c1ccc2c(c1)CCCO2")
"80 to 82 °C"
>>> result("COc1ccc(CC#N)cn1")
"49 to 51 °C"
>>> result("Cc1ccc(-n2cc(C)cn2)c(N)c1")
"49 to 51 °C"
>>> result("Cn1nc(Br)c2c(=O)[nH]cnc21")
"296 to 298 °C"
>>> result("O=C1NC(=O)C2(CN3CCC2CC3)N1 (stereo not drawn)")
"298 to 300 °C"
>>> result("O=C(O)c1cc(-c2cccnc2)on1")
"179 to 181 °C"
>>> result("CC(C)Oc1ccc(-c2nc(C(=O)O)cs2)cc1")
"203 to 205 °C"

###

The following compounds are listed with their measured melting point values.
measured attribute: melting point

>>> result("CC(C)n1[nH]ccc1=NC(=O)Nc1ccccc1")
"110 to 112 °C"
>>> result("O=C(Nc1cc[nH]n1)c1ccccc1")
"161 to 163 °C"
>>> result("Nc1cccc(N2CCCCC2=O)c1")
"144 to 146 °C"
>>> result("COC(=O)C1CCc2cn[nH]c2C1 (centres undefined)")
"64 to 66 °C"
>>> result("O=C(CCl)NCc1ccccc1OC(F)(F)F")
"66 to 68 °C"
>>> result("COc1ccc(NC(=O)Cn2cc(N)cn2)cc1")
"151 to 153 °C"
>>> result("COC(=O)c1ccc(C(=O)OC)c(S(=O)(=O)Cl)c1")
"63 to 67 °C"
>>> result("CCN1CCc2nc(N)sc2C1")
"71 to 80 °C"
>>> result("Cc1cc(N)n(C(=O)OC(C)(C)C)n1")
"135 to 137 °C"
>>> result("CSc1noc(N)n1")
"100 to 102 °C"
>>> result("CC(Cl)C(=O)NC1CCCC(C)C1C (centres undefined)")
"163 to 165 °C"
>>> result("NC(=O)c1ccnc(F)c1")
"175 to 177 °C"
>>> result("FC(F)c1nc(Cl)c2ccccc2n1")
"85 to 87 °C"
>>> result("O=C(c1cccnc1)c1c[nH]c2ccccc12")
"212 to 214 °C"

###

The following molecules are listed with their measured melting point values.
measured attribute: melting point

>>> result("ClC(Cl)(Cl)C(c1ccc(Br)cc1)c1ccc(Br)cc1")
"144 to 146 °C"
>>> result("CCOC(=O)c1nc(Cl)c2ccccc2n1")
"99 to 101 °C"
>>> result("CCS(=O)(=O)c1ccc(CCC(=O)O)cc1")
"119 to 121 °C"
>>> result("O=C(O)CN1C(=O)NC2(CCCC2)C1=O")
"165 to 167 °C"
>>> result("O=C(O)c1cccc(S(=O)(=O)Nc2ccc(I)cc2)c1")
"260 to 262 °C"
>>> result("CC(C)(C)Cc1cc(N)on1")
"87 to 89 °C"
>>> result("CCOC(=O)NC(=S)Nc1nccs1")
"169 to 171 °C"
>>> result("O=C(Nc1ccccc1Cl)c1c[nH]c2ccccc12")
"213 to 215 °C"
>>> result("O=S(=O)(Cl)c1ccc(OCC(F)F)cc1")
"42 to 44 °C"
>>> result("O=C(O)CNC(=O)/C=C/c1ccco1")
"218 to 221 °C"
>>> result("O=C1CCCSc2ccc(Cl)cc21")
"49 to 51 °C"
>>> result("Cc1cccc(-n2nc(C(C)(C)C)cc2N)c1")
"90 to 92 °C"
>>> result("O=C(CN1CCNCC1)Nc1ccccc1Cl")
"99 to 101 °C"

###

The following compounds are listed with their measured melting point values.
measured attribute: melting point

>>> result("CS(=O)(=O)CCC(=O)O")
"100 to 102 °C"
>>> result("O=C(NCCCCl)C1CCCC1")
"66 to 68 °C"
>>> result("Oc1ccnc2cc(Br)ccc12")
"286 to 288 °C"
>>> result("N#Cc1ccc(Oc2ccc(F)c(Cl)c2)c(F)c1")
"97 to 99 °C"
>>> result("CCCc1nn(-c2ccccc2F)c(Cl)c1C(=O)O")
"169 to 171 °C"
>>> result("CC(C)(C)c1ccc(C=CC(=O)O)cc1")
"206 to 208 °C"
>>> result("Oc1cccc(-c2cn[nH]c2)c1")
"218 to 220 °C"
>>> result("Cc1cc(C)n(N)c(=O)c1C#N")
"164 to 166 °C"
>>> result("O=C(O)Cc1ccc(NC(=O)c2ccccc2I)cc1")
"226 to 228 °C"
>>> result("O=[N+]([O-])c1cc(F)cc(S(=O)(=O)Cl)c1")
"40 to 42 °C"
>>> result("O=[N+]([O-])c1cn(Cc2ccc(F)cc2)cn1")
"109 to 111 °C"
>>> result("CCC1Cc2c(Br)cccc2C(=O)N1 (stereo not drawn)")
"101 to 103 °C"
>>> result("CC(C)CNS(=O)(=O)c1ccc(Br)c(C(=O)O)c1")
"174 to 176 °C"
>>> result("O=C(O)CCc1nc(-c2ccc(Cl)cc2)no1")
"152 to 154 °C"
>>> result("CC(=O)Nc1ccc(CO)cc1")
"117 to 119 °C"
>>> result("O=C(CC(F)(F)F)c1ccc(Cl)cc1")
"39 to 41 °C"
>>> result("CC(C)(C)c1ccc(C2(N)CCCC2)cc1")
"120 to 122 °C"
>>> result("O=C(O)c1cccc(CSc2c(Cl)cccc2Cl)c1")
"222 to 224 °C"
>>> result("CCCN1CCc2c(sc(N)c2C(N)=O)C1")
"139 to 141 °C"
>>> result("COC(=O)c1ccsc1N1CCC(N)C1=O (stereo not drawn)")
"88 to 90 °C"
>>> result("COC(=O)c1ccccc1-c1ccc(C=O)o1")
"68 to 72 °C"
>>> result("NCc1ccc(N2CCN(c3ncccn3)CC2)c(F)c1")
"90 to 92 °C"
>>> result("COc1ccc(C(=O)N2CCN(C)CC2)cc1N")
"114 to 116 °C"
>>> result("COc1ccc(Cl)cc1CC(=O)O")
"131 to 133 °C"
>>> result("O=Cc1cc(Br)c(OCc2ccccc2)c(Br)c1")
"78 to 80 °C"
>>> result("COCCNc1nc(Cl)nc(Cl)n1")
"71 to 73 °C"
>>> result("Nc1cccc(C(=O)N2CCSCC2)c1")
"114 to 116 °C"
>>> result("COC(=O)c1ccc(CNC(=O)CCl)cc1")
"108 to 110 °C"
